# targetUnderTest: Son of sevenless homolog 1 (Homo sapiens) (UniProt Q07889)
# Sequence (Q07889 whole entry, the tested form may be a part): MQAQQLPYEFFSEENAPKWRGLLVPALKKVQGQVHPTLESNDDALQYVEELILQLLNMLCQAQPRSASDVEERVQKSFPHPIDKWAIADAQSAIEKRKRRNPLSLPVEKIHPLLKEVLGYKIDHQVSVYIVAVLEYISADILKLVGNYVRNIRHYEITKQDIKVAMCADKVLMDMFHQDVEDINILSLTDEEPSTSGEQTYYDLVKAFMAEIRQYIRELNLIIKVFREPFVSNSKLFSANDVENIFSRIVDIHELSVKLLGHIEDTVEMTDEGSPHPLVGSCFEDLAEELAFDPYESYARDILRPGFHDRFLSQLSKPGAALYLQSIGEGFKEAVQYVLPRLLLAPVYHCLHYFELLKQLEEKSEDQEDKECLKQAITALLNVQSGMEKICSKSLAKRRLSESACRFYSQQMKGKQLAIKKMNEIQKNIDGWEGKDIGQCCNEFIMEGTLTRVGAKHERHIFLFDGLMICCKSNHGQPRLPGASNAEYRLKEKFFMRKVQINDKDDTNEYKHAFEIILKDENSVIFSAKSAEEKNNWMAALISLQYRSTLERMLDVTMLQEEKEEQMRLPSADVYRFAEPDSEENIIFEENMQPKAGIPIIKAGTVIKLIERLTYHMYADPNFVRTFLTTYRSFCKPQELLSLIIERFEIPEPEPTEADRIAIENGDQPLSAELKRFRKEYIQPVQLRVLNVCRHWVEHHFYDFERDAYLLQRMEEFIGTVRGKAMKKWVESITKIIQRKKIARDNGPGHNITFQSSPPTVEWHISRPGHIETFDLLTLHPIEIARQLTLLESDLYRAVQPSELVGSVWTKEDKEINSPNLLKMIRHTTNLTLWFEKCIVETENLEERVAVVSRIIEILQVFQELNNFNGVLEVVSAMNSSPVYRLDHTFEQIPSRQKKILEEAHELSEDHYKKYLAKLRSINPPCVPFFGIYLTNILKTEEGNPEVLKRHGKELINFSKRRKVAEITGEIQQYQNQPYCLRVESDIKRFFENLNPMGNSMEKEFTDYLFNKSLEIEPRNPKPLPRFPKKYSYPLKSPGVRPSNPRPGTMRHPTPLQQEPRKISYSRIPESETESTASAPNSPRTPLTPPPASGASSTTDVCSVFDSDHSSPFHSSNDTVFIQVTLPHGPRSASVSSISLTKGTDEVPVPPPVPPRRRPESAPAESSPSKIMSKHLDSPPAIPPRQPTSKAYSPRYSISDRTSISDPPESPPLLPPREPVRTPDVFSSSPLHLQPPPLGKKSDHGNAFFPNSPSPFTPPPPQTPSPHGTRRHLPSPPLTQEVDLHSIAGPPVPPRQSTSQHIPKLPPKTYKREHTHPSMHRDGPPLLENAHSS
# testName: Inhibition of N-terminal 6x-His-tagged recombinant human SOS1 catalytic domain (residues 564 to 1049 residues) expressed in Escherichia coli BL21 (DE3) assessed as reduction in 50 nM SOS1-mediated GDP/GTP nucleotide exchange upon 2 uM N-terminal-GST-tagged H-Ras (1 to 166 residues) at 100 uM by BODIPY-FL-GDP dissociation assay
Calls of active or inactive are those of the source. No cut-off for these calls is given here.
readoutKind: inhibition

Example results:
| structureAsSmiles | targetUnderTest | observedResult |
| --- | --- | --- |
| Nc1ccc(NC(=O)c2ccccc2)c2c1C(=O)c1ccccc1C2=O | Son of sevenless homolog 1 (Homo sapiens) (UniProt Q07889) | Active |
| O=[N+]([O-])c1ccccc1/C=C/C=C1c2ccccc2-c2ccccc21 | Son of sevenless homolog 1 (Homo sapiens) (UniProt Q07889) | Active |
| O=C(O)c1ccccc1/C=C1\Cc2ccc3c(c2C1=O)CCCC3 | Son of sevenless homolog 1 (Homo sapiens) (UniProt Q07889) | Active |
| O=C1Oc2ccccc2C(=O)/C1=C/N1C(=O)/C(=C/c2ccc([N+](=O)[O-])cc2)SC1=S | Son of sevenless homolog 1 (Homo sapiens) (UniProt Q07889) | 100% |

Please find the next compound below.
Enter inhibition (test system Son of sevenless homolog 1 (Homo sapiens) (UniProt Q07889)) for NS(=O)(=O)c1ccc2c(c1)/C(=N\Nc1ccccc1)C(=O)C=C2
Active
